- System: SMN2 minigene mRNA (SMN2-A minigene) in HEK293H cells
- protocol_description: SMN2 minigene mRNA splicing RT-qPCR assay in cultured cells
- Type: cell-based, human
- recorded_conditions: Homo sapiens, HEK293-H; concentration increasing full length SMN2 mRNA 1.5-fold relative to vehicle-treated cells; HEK293H cells with SMN2-A minigene, 24 hours, 7-point concentration data; read-out: EC1.5x for production of full length SMN2 mRNA
# reported EC (1.5-fold increase); entries follow

| compound_structure | assay_target | EC (1.5-fold increase) |
| --- | --- | --- |
| CN1CC=C(c2ccc3nc(-c4ccc(N(C)C)nc4)cc(=O)n3c2)CC1 | SMN2 minigene mRNA (SMN2-A minigene) in HEK293H cells | 0.3 to 1 µM |
| CCc1nc(C)cn2nc(-c3cc(=O)n4cc(N5CCN(CCCF)CC5)ccc4n3)cc12 | SMN2 minigene mRNA (SMN2-A minigene) in HEK293H cells | 0.1 to 0.3 µM |
| Cc1cn(-c2cc(=O)n3cc(N4CCNCC4)ccc3n2)cn1 | SMN2 minigene mRNA (SMN2-A minigene) in HEK293H cells | 0.3 to 1 µM |
| COc1ccc(-c2cc(=O)n3cc(C4CCNCC4)ccc3n2)cc1F | SMN2 minigene mRNA (SMN2-A minigene) in HEK293H cells | < 0.1 µM |
| COc1ccc(-c2cc(=O)n3cc(N4CCNCC4)ccc3c2C#N)cc1OC | SMN2 minigene mRNA (SMN2-A minigene) in HEK293H cells | 1 to 3 µM |
| COc1ccc(-c2cc(=O)n3cc(N4C[C@@H]5CCN(C)[C@@H]5C4)ccc3n2)cc1F | SMN2 minigene mRNA (SMN2-A minigene) in HEK293H cells | 1 to 3 µM |
| Cc1cn2nc(-c3cc(=O)n4cc(C5=CCN(C)CC5)cc(C)c4n3)cc2c(C)n1 | SMN2 minigene mRNA (SMN2-A minigene) in HEK293H cells | < 0.1 µM |
| Cc1cn2nc(-c3cc(=O)n4cc(N5CCC(C)(N(C)C)CC5)ccc4n3)cc2c(C)n1 | SMN2 minigene mRNA (SMN2-A minigene) in HEK293H cells | < 0.1 µM |
| O=c1cc(-c2ccc3c(c2)OCO3)nc2ccc(N3CCNCC3)cn12 | SMN2 minigene mRNA (SMN2-A minigene) in HEK293H cells | 0.3 to 1 µM |
| CCCN1CCC(c2cc(C)c3nc(-c4cc5c(C)nc(C)cn5n4)cc(=O)n3c2)CC1 | SMN2 minigene mRNA (SMN2-A minigene) in HEK293H cells | < 0.1 µM |
| Cc1nc2ccc(-c3cc(=O)n4cc(N5CCNCC5)ccc4n3)cc2o1 | SMN2 minigene mRNA (SMN2-A minigene) in HEK293H cells | < 0.1 µM |
| Cc1nc2ccc(-c3cc(=O)n4cc(C5=CCNCC5)ccc4n3)cc2s1 | SMN2 minigene mRNA (SMN2-A minigene) in HEK293H cells | < 0.1 µM |
| CCc1cc(C2=CCN(C)CC2)cn2c(=O)cc(-c3ccc(OC)c(OC)c3)nc12 | SMN2 minigene mRNA (SMN2-A minigene) in HEK293H cells | < 0.1 µM |

---

readout_label: melting point

| compound | readout_label | result |
| --- | --- | --- |
| CCc1nc(C)cn2nc(-c3cc(=O)n4cc(C5CCN(C(C)C)CC5)ccc4n3)cc12 | melting point | 228 to 230 °C |
| Cc1cn2nc(-c3cc(=O)n4cc(N5CCNCC5)ccc4n3)cc2c(C2CC2)n1 | melting point | 226 to 229 °C |
| Cc1cn2cc(-c3cc(=O)n4cc(C5CCN(C)CC5)ncc4n3)ccc2n1 | melting point | 277 to 280 °C |
| Cc1nc2ccc(-c3cc(=O)n4cc(N5CCN6CCC[C@H]6C5)ccc4n3)cc2o1 | melting point | 214 to 217 °C |
| Cc1cn2nc(-c3cc(=O)n4cc(N5CCC(N(CCO)CCO)CC5)cc(C)c4n3)cc2c(C)n1 | melting point | 218 to 227 °C |
| CCN1CC=C(c2ccc3nc(-c4ccc5nc(C)oc5c4)cc(=O)n3n2)CC1 | melting point | 205 to 207 °C |
| Cc1cn2nc(-c3cc(=O)n4cc(C5CCN(C6CCC6)CC5)cc(C)c4n3)cc2c(C)n1 | melting point | 228 to 237 °C |
| N#Cc1cccc(-c2cc(=O)n3cc(N4CCNCC4)ccc3n2)c1 | melting point | 224 to 231 °C |
| Cc1cn2cc(-c3cc(=O)n4cc(C5=CCN(C(C)C)CC5)ccc4n3)ccc2n1 | melting point | 230 to 232 °C |
| Cc1nc2cc(-c3cc(=O)n4cc(N5CCN(C)CC5)ccc4n3)ccc2s1 | melting point | 214 to 218 °C |
| Cc1nc2cc(-c3cc(=O)n4cc(N5CCC(N)CC5)ccc4n3)ccc2s1 | melting point | 190 to 192 °C |
| Cc1cn2nc(-c3cc(=O)n4cc(C5C[C@H](C)N[C@@H](C)C5)ccc4n3)cc2c(C)n1 (stereo partly drawn) | melting point | 248 to 250 °C |
| Cc1cn2cc(-c3cc(=O)n4cc(C5CCNCC5)ccc4n3)cc(Cl)c2n1 | melting point | 287 to 293 °C |
| Cc1nc2cc(-c3cc(=O)n4cc(N5CCNCC5)ccc4n3)ccc2o1 | melting point | 178 to 183 °C |
| CCN1CC=C(c2ccc3nc(-c4cc(F)c5nc(C)oc5c4)cc(=O)n3c2)CC1 | melting point | 151 to 154 °C |

---

# reported melting point; entries follow
readout_label: melting point

| compound_structure | result |
| --- | --- |
| O=c1cc(-c2ccc3cc[nH]c3c2)nc2ccc(N3CCNCC3)cn12 | 202 to 206 °C |
| Cc1cn2cc(-c3cc(=O)n4cc(N5CCN[C@@H](C)C5)ccc4n3)nc2cn1 | 235 to 238 °C |
| CCN1CCC(c2ccc3nc(-c4ccc5nn(C)cc5c4)cc(=O)n3c2)CC1 | 202 to 204 °C |
| Cc1cn2nc(-c3cc(=O)n4cc(N5CCN(C)[C@H](C)C5)ccc4n3)cc2c(C)n1 | 247 to 249 °C |
| CN1CC=C(c2ccc3nc(-c4ccc5nn(C)cc5c4)cc(=O)n3c2)CC1 | 226 to 228 °C |
| CCc1nc(C)cn2nc(-c3cc(=O)n4cc(N5CCN(CCCF)[C@H](C)C5)ccc4n3)cc12 | 244 to 246 °C |
| O=c1cc(-c2ccc(F)cc2)nc2ccc(N3CCNCC3)cn12 | 214 to 218 °C |
| O=c1cc(-c2ccc(O)c(OC(F)(F)F)c2)nc2ccc(N3CCNCC3)cn12 | 245 to 248 °C |
| COc1ccc(-c2cc(=O)n3cc(N4C[C@@H](C)N[C@@H](C)C4)ccc3n2)cc1OC | 182 to 187 °C |

---

- Tested on: SMN2 minigene mRNA (SMN2-A minigene) in HEK293H cells
- protocol_description: SMN2 minigene mRNA splicing RT-qPCR assay in cultured cells
- Type: cell-based, human
- recorded_conditions: Homo sapiens, HEK293-H; concentration increasing full length SMN2 mRNA 1.5-fold relative to vehicle-treated cells; HEK293H cells with SMN2-A minigene, 24 hours, 7-point concentration data; read-out: EC1.5x for production of full length SMN2 mRNA
readout_label: EC (1.5-fold increase)

| compound | assay_target | result |
| --- | --- | --- |
| CCOc1ccc(-c2cc(=O)n3cc(N4CCNCC4)ccc3n2)cc1F [Cpd 153] | SMN2 minigene mRNA (SMN2-A minigene) in HEK293H cells | 0.3 to 1 µM |
| Cc1cn2cc(-c3cc(=O)n4cc(N5CCN[C@@H](C)C5)ccc4n3)cc(C(F)(F)F)c2n1 [Compound 735] | SMN2 minigene mRNA (SMN2-A minigene) in HEK293H cells | < 0.1 µM |
| CCc1cc(-c2cc(=O)n3cc(N4CCN(CCO)[C@@H](C)C4)ccc3n2)cn2cc(C)nc12 [Compound 651] | SMN2 minigene mRNA (SMN2-A minigene) in HEK293H cells | < 0.1 µM |
| Cc1cn2nc(-c3cc(=O)n4cc(N5CC[C@H](CN)C5)ccc4n3)cc2c(C)n1 [Compound 797] | SMN2 minigene mRNA (SMN2-A minigene) in HEK293H cells | 1 to 3 µM |
| O=c1cc(-c2ccc([N+](=O)[O-])cc2)nc2ccc(N3CCNCC3)cn12 [Compound 47] | SMN2 minigene mRNA (SMN2-A minigene) in HEK293H cells | 1 to 3 µM |
| Cc1cc2cc(-c3cc(=O)n4cc(N5CCN(C)CC5)ccc4n3)oc2c(C)n1 [Compound 487] | SMN2 minigene mRNA (SMN2-A minigene) in HEK293H cells | 0.1 to 0.3 µM |
| COc1ccc(-c2cc(=O)n3cc(C4CCN(CCO)CC4)ccc3n2)cc1OC [Compound 214] | SMN2 minigene mRNA (SMN2-A minigene) in HEK293H cells | 0.3 to 1 µM |
